Molecular target: PLK1 (Homo sapiens)
Sequence (P53350 whole entry): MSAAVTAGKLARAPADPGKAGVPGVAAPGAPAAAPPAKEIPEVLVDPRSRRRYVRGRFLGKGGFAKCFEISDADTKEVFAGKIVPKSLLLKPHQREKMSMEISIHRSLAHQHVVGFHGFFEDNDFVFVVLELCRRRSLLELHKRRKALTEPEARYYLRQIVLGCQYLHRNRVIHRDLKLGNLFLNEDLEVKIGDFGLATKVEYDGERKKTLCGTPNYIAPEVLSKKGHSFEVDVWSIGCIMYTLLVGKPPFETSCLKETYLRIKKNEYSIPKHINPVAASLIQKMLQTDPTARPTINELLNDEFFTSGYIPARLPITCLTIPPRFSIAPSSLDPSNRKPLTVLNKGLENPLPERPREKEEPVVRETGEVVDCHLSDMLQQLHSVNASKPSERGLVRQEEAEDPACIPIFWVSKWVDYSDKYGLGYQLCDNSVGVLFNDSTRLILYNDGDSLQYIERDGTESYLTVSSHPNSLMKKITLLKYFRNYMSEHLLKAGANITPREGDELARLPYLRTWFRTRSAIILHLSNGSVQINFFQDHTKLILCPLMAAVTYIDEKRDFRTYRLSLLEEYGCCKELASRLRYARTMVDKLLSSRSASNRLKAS
Test: PLK TR-FRET peptide assay, PLK1
Type: biochemical
Details: GST-PLK1, 60 min reaction
# Lookup of reported IC50 keyed by entry

# example entries with known answers
CC[C@@H]1C(=O)N(C)c2cnc(-c3ccncc3NC(C)=O)nc2N1C(C)C : > 50 µM
CC[C@@]12CCCN1c1nc(-n3ccnc3-c3ccc(Cl)s3)ncc1N(C)C2=O : 10 to 50 µM
CN1C(=O)[C@@H](CC(F)(F)F)N(CCC(F)(F)F)c2nc(-n3ccnc3-c3ccc(F)cc3F)ncc21 : 1 to 10 µM
CC[C@@H]1C(=O)N(C)c2cnc(-c3ccncc3NC(=O)c3ccccc3)nc2N1C(C)C : 1 to 10 µM
CC[C@@]12CCCN1c1nc(-c3cn[nH]c3-c3ccccc3)ncc1N(C)C2=O : 1 to 10 µM
CC[C@@H]1C(=O)N(C)c2cnc(-c3ccncc3CNC(C)=O)nc2N1C1CCCC1 : 10 to 50 µM

Query :: Lab note: need IC50 for CC[C@@H]1C(=O)N(C)c2cnc(-c3cn[nH]c3-c3ccccn3)nc2N1C(C)C on PLK1 (Homo sapiens), anyone have it?
Result :: 1 to 10 µM

Query :: Observed IC50 on PLK1 (Homo sapiens) for CC[C@@H]1C(=O)N(C)c2cnc(-c3cn[nH]c3-c3cscn3)nc2N1C1CCCC1 , please.
Result :: < 1 µM
